The measurements presented in this section are drawn from patent US20250282785A1.

Provide the reported IC50 of each item.
tested on: p-IKKα levels in L363 (NIK translocated multiple myeloma) cells; test: Effect of compounds on p-IKKα levels in L363 cells (AlphaLISA SureFire Ultra); assay type: cell-based; conditions: Homo sapiens, L-363; L363 cells, BAFF stimulated, MG132, 6 h; average of values; read-out: Assay 2 IC50

IN: Fill in the blank: the reported IC50 of COc1cc(-c2cccc(-c3cc([C@]4(O)CCN(C)C4=O)on3)c2)cc(C(N)=O)n1 is ____.
OUT: > 501 nM

IN: Fill in the blank: the reported IC50 of CN1CC[C@@](O)(c2cc(-c3cccc(-c4ncc(Nc5cnn(CC(F)(F)F)c5)c(C(N)=O)n4)c3)no2)C1=O is ____.
OUT: < 100 nM

IN: Fill in the blank: the reported IC50 of CCn1ncc2cc(-c3cccc(-c4cc([C@]5(O)CCN(C)C5=O)on4)c3)cnc21 is ____.
OUT: > 501 nM

IN: Fill in the blank: the reported IC50 of CN1CC[C@@](O)(c2cc(-c3cccc(-c4nc(C(N)=O)n5ccccc45)c3)no2)C1=O is ____.
OUT: < 100 nM

IN: Fill in the blank: the reported IC50 of CN1CC[C@@](O)(c2cc(-c3cccc(-c4nc(C(N)=O)c(C5CC5)s4)c3)no2)C1=O is ____.
OUT: 100 to 500 nM

IN: Fill in the blank: the reported IC50 of [2H]c1nc(N)c2nc(-c3cccc(-c4n[nH]c([C@]5(O)CCN(C)C5=O)n4)c3)ccc2n1 (single isomer, unassigned) is ____.
OUT: > 501 nM

IN: Fill in the blank: the reported IC50 of CCn1nc(C(F)(F)F)cc1-c1cc(C(N)=O)nc(-c2cccc(-c3cc([C@]4(O)CCN(C)C4=O)on3)c2)c1 is ____.
OUT: > 501 nM

###

Provide the reported IC50 of each item.
target: Recombinant Human NF-Kappab-Inducing Kinase (NIK/MAP3K14) (Homo sapiens, UniProt Q99558); test: Inhibition of auto-phosphorylation of recombinant human NIK/MAP3K14 (AlphaScreen); type: biochemical; details: NIK/MAP3K14 auto-phosphorylation, 5 microM ATP, 1 nM enzyme, 2 h at 25° C.; average of values; read-out: Assay 1 IC50
Sequence (Q99558 whole entry): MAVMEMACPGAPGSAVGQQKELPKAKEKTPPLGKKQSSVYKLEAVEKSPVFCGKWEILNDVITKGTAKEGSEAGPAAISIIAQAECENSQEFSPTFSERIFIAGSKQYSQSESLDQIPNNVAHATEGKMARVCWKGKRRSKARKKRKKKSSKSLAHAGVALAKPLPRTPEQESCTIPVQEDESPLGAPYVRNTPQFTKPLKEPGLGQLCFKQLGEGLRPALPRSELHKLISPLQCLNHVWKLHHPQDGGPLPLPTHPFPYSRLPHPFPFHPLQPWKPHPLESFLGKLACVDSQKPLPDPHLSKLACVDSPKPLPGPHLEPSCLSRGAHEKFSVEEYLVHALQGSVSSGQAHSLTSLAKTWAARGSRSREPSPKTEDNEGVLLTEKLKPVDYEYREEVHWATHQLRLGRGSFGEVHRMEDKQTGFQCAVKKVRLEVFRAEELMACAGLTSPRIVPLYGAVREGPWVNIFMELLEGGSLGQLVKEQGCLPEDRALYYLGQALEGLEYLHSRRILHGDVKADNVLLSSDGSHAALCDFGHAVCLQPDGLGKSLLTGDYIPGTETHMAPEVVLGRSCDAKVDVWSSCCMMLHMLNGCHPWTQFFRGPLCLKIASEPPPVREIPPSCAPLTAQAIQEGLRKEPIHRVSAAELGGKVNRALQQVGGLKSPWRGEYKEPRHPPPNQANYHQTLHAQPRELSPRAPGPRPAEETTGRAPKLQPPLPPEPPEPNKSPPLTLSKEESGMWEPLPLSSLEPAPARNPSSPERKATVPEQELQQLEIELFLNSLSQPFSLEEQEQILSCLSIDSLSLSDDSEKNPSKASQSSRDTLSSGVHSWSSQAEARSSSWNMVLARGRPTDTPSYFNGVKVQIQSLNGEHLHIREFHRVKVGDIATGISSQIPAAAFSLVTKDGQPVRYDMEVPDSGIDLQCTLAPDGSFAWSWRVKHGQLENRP

IN: Recall the recorded IC50 for CN1CC[C@@](O)(c2cn(-c3cccc(-c4nc(C(N)=O)n5ccccc45)c3)nn2)C1=O [Example 15] with Recombinant Human NF-Kappab-Inducing Kinase (NIK/MAP3K14) (Homo sapiens, UniProt Q99558) and state it.
OUT: < 0.1 µM

IN: Recall the recorded IC50 for COc1ncc(-c2cc(C(N)=O)nc(-c3cccc(-c4cc([C@]5(O)CCN(C)C5=O)on4)c3)c2)s1 [Example 191] with Recombinant Human NF-Kappab-Inducing Kinase (NIK/MAP3K14) (Homo sapiens, UniProt Q99558) and state it.
OUT: < 0.1 µM

IN: Recall the recorded IC50 for CN1CC[C@@](O)(c2cc(-c3cccc(-c4ccc5occc5n4)c3)no2)C1=O [Example 66] with Recombinant Human NF-Kappab-Inducing Kinase (NIK/MAP3K14) (Homo sapiens, UniProt Q99558) and state it.
OUT: > 0.501 µM

IN: Recall the recorded IC50 for CN1CC[C@@](O)(c2cc(-c3cccc(-c4ccn5nccc5c4)c3)no2)C1=O [Example 58] with Recombinant Human NF-Kappab-Inducing Kinase (NIK/MAP3K14) (Homo sapiens, UniProt Q99558) and state it.
OUT: 0.1 to 0.5 µM

###

tested on: p-IKKα levels in L363 (NIK translocated multiple myeloma) cells; assay: Effect of compounds on p-IKKα levels in L363 cells (AlphaLISA SureFire Ultra); assay type: cell-based; settings: Homo sapiens, L-363; L363 cells, BAFF stimulated, MG132, 6 h; average of values; read-out: Assay 2 IC50
Provide the reported IC50 of each item.

IN: Fill in the blank: the reported IC50 of CN1CC[C@@](O)(c2cc([C@@H]3CCCN(c4ccc5ncnc(N)c5n4)C3)no2)C1=O (single isomer, unassigned) [Example 202] is ____.
OUT: > 501 nM

IN: Fill in the blank: the reported IC50 of Cc1ccc(-c2cc([C@]3(O)CCN(C)C3=O)no2)cc1-c1nc2c(N)ncnc2s1 [Example 175] is ____.
OUT: > 501 nM

IN: Fill in the blank: the reported IC50 of [2H]c1nc(N)c2nc(-c3cccc(-c4cc([C@]5(O)CCN(C)C5=O)n[nH]4)c3)ccc2n1 (single isomer, unassigned) [Example 38] is ____.
OUT: > 501 nM

IN: Fill in the blank: the reported IC50 of COc1cc(-c2cc(-c3cc([C@@]4(O)C(=O)N(C)CC4(F)F)on3)ccc2F)nc2c(N)ncnc12 [Example 119] is ____.
OUT: 100 to 500 nM

IN: Fill in the blank: the reported IC50 of CN1CC[C@@](O)(c2cc(-c3cccc(-c4cccc(C(N)=O)n4)c3)on2)C1=O [Example 18] is ____.
OUT: > 501 nM

IN: Fill in the blank: the reported IC50 of CN1CC[C@@](O)(c2cc(-c3cccc(-c4ncc(N)c(C(=O)N[C@H]5CCOC5)n4)c3)no2)C1=O [Example 126] is ____.
OUT: > 501 nM

IN: Fill in the blank: the reported IC50 of CN1CC[C@@](O)(c2cc(-c3cccc(-c4ccc5c(cnn5C)n4)c3)no2)C1=O [Example 229] is ____.
OUT: > 501 nM

IN: Fill in the blank: the reported IC50 of Cc1ncc(-c2cc(C(N)=O)nc(-c3cccc(-c4cc([C@]5(O)CCN(C)C5=O)on4)c3)c2)o1 [Example 186] is ____.
OUT: 100 to 500 nM

IN: Fill in the blank: the reported IC50 of CN1CC[C@@](O)(c2cc(-c3cccc(-c4ncc5cn[nH]c5n4)c3)no2)C1=O [Example 226] is ____.
OUT: > 501 nM

IN: Fill in the blank: the reported IC50 of [2H]c1nc(N)c2nc(-c3cccc(-c4cc([C@@]5(O)CCN(C)C5=O)nn4C)c3)ccc2n1 (single isomer, unassigned) [Example 44] is ____.
OUT: > 501 nM

IN: Fill in the blank: the reported IC50 of CN1C(=O)[C@](O)(c2cc(-c3cccc(-c4cc(C5CC5)c(N)c(C(N)=O)n4)c3)no2)C[C@H]1C(F)(F)F [Example 178] is ____.
OUT: > 501 nM

IN: Fill in the blank: the reported IC50 of CN1CC[C@@](O)(c2cc(-c3cccc(-c4cc(C(F)(F)F)cc(C(N)=O)n4)c3)no2)C1=O [Example 91] is ____.
OUT: 100 to 500 nM

IN: Fill in the blank: the reported IC50 of CCn1cc(-c2cc(C(N)=O)nc(-c3cccc(-c4cc([C@]5(O)CCN(C)C5=O)on4)c3)c2)c(C)n1 [Example 187] is ____.
OUT: 100 to 500 nM

IN: Fill in the blank: the reported IC50 of CN1CC[C@@](O)(c2cc(-c3cccc(-c4cc(-c5ccnn5C)cc(C(N)=O)n4)c3)no2)C1=O [Example 182] is ____.
OUT: > 501 nM

###

tested on: p-IKKα levels in L363 (NIK translocated multiple myeloma) cells; test: Effect of compounds on p-IKKα levels in L363 cells (AlphaLISA SureFire Ultra); type: cell-based; settings: Homo sapiens, L-363; L363 cells, BAFF stimulated, MG132, 6 h; average of values; read-out: Assay 2 IC50
MEASURE: IC50

IN: Fill in the blank: the reported IC50 of CN1CCC(O)(c2cc(-c3cccc(-c4nccc(C(N)=O)n4)c3)on2)C1=O (racemic) is ____.
OUT: > 501 nM

IN: Fill in the blank: the reported IC50 of Cc1cc(N2CCC[C@H](c3cc([C@]4(O)CCN(C)C4=O)on3)C2)nc2c(N)ncnc12 (single isomer, unassigned) is ____.
OUT: > 501 nM

IN: Fill in the blank: the reported IC50 of CN1CC[C@@](O)(c2cc(-c3cccc(-n4nc(C(N)=O)c5cc(F)ccc54)c3)no2)C1=O is ____.
OUT: 100 to 500 nM

IN: Fill in the blank: the reported IC50 of CN1CC[C@@](O)(c2cc(-c3cccc(-n4nc(C(N)=O)c5cc(C6CC6)ccc54)c3)no2)C1=O is ____.
OUT: 100 to 500 nM

IN: Fill in the blank: the reported IC50 of CN1CC[C@@](O)(c2cc(-c3cccc(-c4cc5c[nH]nc5cn4)c3)no2)C1=O is ____.
OUT: > 501 nM

IN: Fill in the blank: the reported IC50 of CN1CC[C@@](O)(c2cc(-c3cccc(-c4cn(C)c(C(N)=O)n4)c3)no2)C1=O is ____.
OUT: > 501 nM

IN: Fill in the blank: the reported IC50 of CN1CC[C@@](O)(c2cc(-c3cccc(-c4ccc5occc5n4)c3)no2)C1=O is ____.
OUT: > 501 nM

IN: Fill in the blank: the reported IC50 of COc1nc(-c2cccc(-c3cc([C@]4(O)CCN(C)C4=O)on3)c2)nc(OC)c1N is ____.
OUT: > 501 nM

IN: Fill in the blank: the reported IC50 of COc1cn(C)nc1Nc1cnc(-c2cccc(-c3cc([C@]4(O)CCN(C)C4=O)on3)c2)nc1C(N)=O is ____.
OUT: < 100 nM

IN: Fill in the blank: the reported IC50 of CN1CC[C@@](O)(c2cc(-c3cccc(-c4nc(C(N)=O)c(CNc5ccn(C)n5)s4)c3)no2)C1=O is ____.
OUT: 100 to 500 nM

IN: Fill in the blank: the reported IC50 of CN1CC[C@@](O)(c2cc(-c3cccc(-c4nc(Nc5ccn(C)n5)c(C(F)(F)F)c(C(N)=O)n4)c3)no2)C1=O is ____.
OUT: > 501 nM

IN: Fill in the blank: the reported IC50 of COc1cc(C(N)=O)nc(-c2cccc(-c3cc([C@]4(O)CCN(C)C4=O)on3)c2)c1 is ____.
OUT: 100 to 500 nM

IN: Fill in the blank: the reported IC50 of CN1CC[C@@](O)(c2cc(-c3cccc(-c4ccc(NCC5COC5)c(C(N)=O)n4)c3)no2)C1=O is ____.
OUT: 100 to 500 nM

IN: Fill in the blank: the reported IC50 of CN1CC[C@@](O)(c2cc(-c3cccc(-c4cc5[nH]cnc5c(C(N)=O)n4)c3)no2)C1=O is ____.
OUT: 100 to 500 nM

IN: Fill in the blank: the reported IC50 of CN1CC[C@@](O)(c2cc(-c3cccc(-c4cc5c(c(C(N)=O)n4)CCCC5)c3)no2)C1=O is ____.
OUT: > 501 nM
